These entries and their values trace back to patent US20080139628A1.

change from baseline (flush) at 3 minutes values, listed per item
- System: niacin-induced flushing in mice
- METHOD_NOTES: Block of niacin-induced flushing in mice, Laser Dopler
- Assay type: in vivo
- CONDITION_CONTEXT: mice given compound about 10 minutes before niacin; 3 minutes after niacin
Write down the numeric answer in % and omit the unit.

Known change from baseline (flush) at 3 minutes results, listed for orientation:
{"COMPOUND": "C1Cc2[nH]nc(-c3nnn[nH]3)c2C1 [Compound 1]", "SCALE_UNIT": "%", "ENDPOINT_VALUE": 10}
{"COMPOUND": "O=C(O)c1cc(Cc2cccc(F)c2)[nH]n1 [Compound 2]", "SCALE_UNIT": "%", "ENDPOINT_VALUE": 0}

Next compound, please.
Task item: Reported change from baseline (flush) at 3 minutes, compound O=C(O)c1cc(Cc2cccc(Br)c2)[nH]n1 [Compound 4] : ____
Reply: 15
